Peptide text beside a SMILES is read from it.
Ki tested on Prothrombin (Homo sapiens): recorded values
QUANTITY MEASURED: Ki

{"columns": ["MOLECULE", "MEASURED"],
 "data": [
  ["CC(C)CC(NC(=O)C(Cc1ccccc1)NC(=O)C(N)CO)C(=O)NC(CC(C)C)C(=O)NC(CCCN=C(N)N)C(=O)NC(CC(N)=O)C(=O)N1CCCC1C(=O)NC(CC(N)=O)C(=O)NC(CC(=O)O)C(=O)NC(CCCCN)C(=O)NC(Cc1ccc(O)cc1)C(=O)NC(CCC(=O)O)C(=O)N1CCCC1C(=O)NC(Cc1ccccc1)C(=O)O (centres undefined) [SFLLRNPNDKYEPF-OH] (H-SFLLRNPNDKYEPF-OH; configuration not given here)", "1.1 µM"],
  ["CSCC[C@H](NC(=O)[C@H](CC(C)C)NC(=O)CNC(=O)[C@H](Cc1ccccc1)NC(=O)[C@H](Cc1ccccc1)NC(=O)[C@H](CCC(N)=O)NC(=O)[C@H](CCC(N)=O)NC(=O)[C@@H]1CCCN1C(=O)[C@H](CCCCN)NC(=O)[C@@H]1CCCN1C(=O)[C@@H](N)CCCN=C(N)N)C(N)=O", "> 10 µM"],
  ["CC(=O)O[C@]1(C(C)=O)CC[C@H]2[C@@H]3C[C@H](C)C4=CC(=O)CC[C@]4(C)C3CC[C@@]21C (some centres undefined)", "> 10 µM"],
  ["CC(C)C[C@H](NC(=O)[C@H](CC(C)C)NC(=O)[C@H](Cc1ccccc1)NC(=O)[C@@H](N)CO)C(=O)N[C@@H](CCCN=C(N)N)C(=O)N[C@@H](CC(N)=O)C(N)=O", "0.168 µM"]
]}

These data points were gathered from BindingDB's records for doi:10.1124/mol.51.2.350.
